- Tested on: E57 (patient-derived glioblastoma stem cells of mesenchymal subtype);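 also: nuclei counted by high-content imaging of Hoechst-stained cells in laminin-coated 384-well plates, relative to 0.1% DMSO vehicle wells, with staurosporine as cell-death control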
- method.description: surviving fraction (nuclei count normalised to DMSO); higher = more cells surviving (less toxic)
- conditions.used: 4.1 nM; exposure time: 72 h
Counter-ions that a name gives are not always drawn.
Below: a set of entries, each annotated with reported surviving fraction.
measured.endpoint: surviving fraction

CCCCCCCCCCCCCCCC[N+](C)(C)CCN(Cc1ccc(OC)cc1)c1ncccn1 [Thonzonium bromide] ... 0.925
COc1ccc(/C=C\c2cc(OC)c(OC)c(OC)c2)cc1OP(=O)(O)O [Fosbretabulin Disodium] ... 0.953
COc1ccc(C(=O)CC(=O)c2ccc(C(C)(C)C)cc2)cc1 ... 1.04
O=c1[nH]c(=O)n([C@H]2C[C@H](O)[C@@H](CO)O2)cc1I ... 1.04
C=CC(=O)Nc1cccc(Oc2nc(Nc3ccc(N4CCN(C)CC4)cc3)nc3ccsc23)c1 ... 0.983
CCC(C)(C)c1ccc(CC(C)CN2C[C@@H](C)O[C@@H](C)C2)cc1 (stereo partly specified) [Amorolfine hydrochloride] ... 1
C[C@@H](O[C@H]1OCCN(Cc2n[nH]c(=O)[nH]2)[C@H]1c1ccc(F)cc1)c1cc(C(F)(F)F)cc(C(F)(F)F)c1 [Aprepitant] ... 0.865
CSc1ccc2c(c1)N(CCC1CCCCN1C)c1ccccc1S2 (stereo unspecified) [Thioridazine hydrochloride] ... 0.993
C[C@H](Cc1cc2c(c(C(N)=O)c1)N(CCCO)CC2)NCCOc1ccccc1OCC(F)(F)F ... 0.935
CCC(=O)OCC(=O)[C@@]1(OC(=O)CC)[C@H](C)C[C@H]2[C@H]3[C@H]([C@@H](O)C[C@@]21C)[C@@]1(C)C=CC(=O)C=C1C[C@H]3Cl [Alclometasone dipropionate] ... 1.12
COc1cccc2c(NCc3ccccc3)nc(-n3c(N)nc4ccccc43)nc12 ... 0.984
CNc1ccc2oc(C[C@H]3O[C@@]4(CC[C@H]3C)O[C@H]([C@H](C)C(=O)c3ccc[nH]3)[C@H](C)C[C@H]4C)nc2c1C(=O)O ... 1.07
COc1cc2ncnc(Nc3cccc(Br)c3)c2cc1OC ... 0.926
O=C1CC[C@@H](C(=O)N2CSC[C@H]2C(=O)O)N1 ... 1.07
O=C1c2c(O)ccc(O)c2C(=O)c2c(NCCNCCO)ccc(NCCNCCO)c21 ... 0.245
CCn1c(-c2nonc2N)nc2cnc(Oc3cccc(NC(=O)c4ccc(OCCN5CCOCC5)cc4)c3)cc21 ... 1.06

---

- System: E21 (patient-derived glioblastoma stem cells of mesenchymal subtype);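 also: cell Painting imaging in 384-well plates, CellProfiler features reduced to at least 20 principal components, Euclidean distance versus same-plate DMSO vehicle wells (0.1% v/v), median over six images per well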
- method.description: phenotypic distance (Euclidean, principal components) from DMSO controls (arbitrary units); higher = stronger morphological change
- conditions.used: 37 nM; exposure time: 72 h
Counter-ions that a name gives are not always drawn.
Outcome label depends on phenotypic distance relative to 0.7: at/above gives fulfilled, below gives not fulfilled.

Nc1ccn([C@@H]2O[C@H](CO)[C@@H](O)C2(F)F)c(=O)n1 [Gemcitabine HCl] ... fulfilled
COc1c(N2CCNC(C)C2)c(F)cc2c(=O)c(C(=O)O)cn(C3CC3)c12 (stereo not given) [Gatifloxacin] ... fulfilled
COc1nc(C)nc(Cl)c1NC1=NCCN1 [Moxonidine] ... not fulfilled
CCOC(=O)OC(C)OC(=O)[C@@H]1N2C(=O)[C@@H](NC(=O)[C@H](N)c3ccccc3)[C@H]2SC1(C)C (stereo not given in full) [Bacampicillin hydrochloride] ... fulfilled
COc1cc2c(cc1-c1c(C)noc1C)ncc1[nH]c(=O)n([C@H](C)c3ccccn3)c12 ... fulfilled
Clc1ccc(CSC(Cn2ccnc2)c2ccc(Cl)cc2Cl)cc1 (stereo not given) [Sulconazole nitrate] ... not fulfilled
C[C@@H]1CN([C@H]2CC[C@](C#N)(c3ccc(F)cc3)CC2)CC[C@]1(C(=O)O)c1ccccc1 [Levocabastine hydrochloride] ... fulfilled
CC(C)C[C@H](NC(=O)[C@H](Cc1ccccc1)C[C@@H](O)[C@H](Cc1ccccc1)NC(=O)OC(C)(C)C)C(=O)N[C@@H](Cc1ccccc1)C(N)=O [L-685,458] ... not fulfilled
